- test: LC-MS/MS urinary metabolic profile of patients receiving warfarin
- measurementConditions: patient F87; urine; free and conjugated
Measured urinary concentration, listed per entry for reference.
// units = nM; emit number, no label

Examples with answers:
| compound | measuredMetric | readingUnit | measValue |
| --- | --- | --- | --- |
| CC(=O)CC(c1ccccc1)c1c(O)c2ccc(O)cc2oc1=O (stereo not shown) [7-OH-WAR, 7-hydroxywarfarin] | urinary concentration | nM | 724 |
| CC(=O)CC(c1ccccc1)c1c(O)c2cc(O)ccc2oc1=O (stereo not shown) [6-OH-WAR, 6-hydroxywarfarin] | urinary concentration | nM | 204 |
| CC(=O)CC(c1ccccc1)c1c(O)c2cccc(O)c2oc1=O (stereo not shown) [8-OH-WAR, 8-hydroxywarfarin] | urinary concentration | nM | 231 |

Next up:
Note to self: urinary concentration recorded for CC(=O)CC(c1ccc(O)cc1)c1c(O)c2ccccc2oc1=O (stereo not shown) [4′-OH-WAR, 4′-hydroxywarfarin] was 20

----------
Measured % S (proportion in (S)-enantiomeric form), listed per entry for reference.
- test: LC-MS/MS urinary metabolic profile of patients receiving warfarin
- measurementConditions: patient F85; urine

| compound | measValue |
| --- | --- |
| CC(=O)CC(c1ccccc1)c1c(O)c2ccc(O)cc2oc1=O (stereo not shown) [7-OH-WAR, 7-hydroxywarfarin] | 62% |

Note to self: % S (proportion in (S)-enantiomeric form) recorded for CC(=O)CC(c1ccccc1)c1c(O)c2cccc(O)c2oc1=O (stereo not shown) [8-OH-WAR, 8-hydroxywarfarin] was 2%

Note to self: % S (proportion in (S)-enantiomeric form) recorded for CC(=O)CC(c1ccc(O)cc1)c1c(O)c2ccccc2oc1=O (stereo not shown) [4′-OH-WAR, 4′-hydroxywarfarin] was 75%

Note to self: % S (proportion in (S)-enantiomeric form) recorded for CC(=O)CC(c1ccccc1)c1c(O)c2cc(O)ccc2oc1=O (stereo not shown) [6-OH-WAR, 6-hydroxywarfarin] was 31%

----------
- testTarget: CYP1A2 (Homo sapiens, UniProt P05177)
- Sequence (P05177 whole entry): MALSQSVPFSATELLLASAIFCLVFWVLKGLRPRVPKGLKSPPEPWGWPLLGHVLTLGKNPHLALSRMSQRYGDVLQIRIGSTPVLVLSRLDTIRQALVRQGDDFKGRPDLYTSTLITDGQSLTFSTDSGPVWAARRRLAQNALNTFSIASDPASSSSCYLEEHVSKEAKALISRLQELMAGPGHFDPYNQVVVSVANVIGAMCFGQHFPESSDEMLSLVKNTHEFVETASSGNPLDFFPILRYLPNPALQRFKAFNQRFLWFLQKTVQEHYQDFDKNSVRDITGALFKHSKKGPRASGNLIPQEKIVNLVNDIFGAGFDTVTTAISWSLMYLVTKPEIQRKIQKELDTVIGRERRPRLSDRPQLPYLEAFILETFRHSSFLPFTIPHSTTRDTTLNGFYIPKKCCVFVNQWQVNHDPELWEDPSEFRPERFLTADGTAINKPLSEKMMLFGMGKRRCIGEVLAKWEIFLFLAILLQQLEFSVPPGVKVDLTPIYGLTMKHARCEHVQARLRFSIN
- measurementConditions: read-out: IC50 for CYP marker reaction; P450-Glo marker reaction
Measured IC50, listed per entry for reference.
// units = µM; emit number, no label

Examples with answers:
| compound | testTarget | measuredMetric | measValue |
| --- | --- | --- | --- |
| CC(=O)CC(c1ccccc1)c1c(O)c2ccc(O)cc2oc1=O (stereo not shown) [7-OH-WAR, 7-hydroxywarfarin] | CYP1A2 (Homo sapiens, UniProt P05177) | IC50 | 400 |
| CC(=O)CC(c1ccccc1)c1c(O)c2cc(O)ccc2oc1=O (stereo not shown) [6-OH-WAR, 6-hydroxywarfarin] | CYP1A2 (Homo sapiens, UniProt P05177) | IC50 | 1400 |

Next up:
Note to self: IC50 recorded for CC(=O)CC(c1ccccc1)c1c(O)c2cccc(O)c2oc1=O (stereo not shown) [8-OH-WAR, 8-hydroxywarfarin] was 830

----------
- test: LC-MS/MS urinary metabolic profile of patients receiving warfarin
- measurementConditions: patient F87; urine
Measured % S (proportion in (S)-enantiomeric form), listed per entry for reference.
// units = %; emit number, no label

Examples with answers:
| compound | readingUnit | measValue |
| --- | --- | --- |
| CC(=O)CC(c1ccc(O)cc1)c1c(O)c2ccccc2oc1=O (stereo not shown) [4′-OH-WAR, 4′-hydroxywarfarin] | % | 70 |
| CC(=O)CC(c1ccccc1)c1c(O)c2cccc(O)c2oc1=O (stereo not shown) [8-OH-WAR, 8-hydroxywarfarin] | % | 31 |
| CC(=O)CC(c1ccccc1)c1c(O)c2ccc(O)cc2oc1=O (stereo not shown) [7-OH-WAR, 7-hydroxywarfarin] | % | 48 |

Next up:
Note to self: % S (proportion in (S)-enantiomeric form) recorded for CC(=O)CC(c1ccccc1)c1c(O)c2cc(O)ccc2oc1=O (stereo not shown) [6-OH-WAR, 6-hydroxywarfarin] was 38
